These entries and their values trace back to patent US7045528B2.

# System: Huvec
# assay-remarks: bFGF Huvec proliferation
# Assay type: cell-based, human
# condition: Homo sapiens, HUVEC
Each entry below lists one item and its recorded log10 of IC50 value.
Note: values are log10 of IC50 expressed in nM.

The cases that follow already have their log10 of IC50 on record.
compound="CNC(=O)c1c(C)n(C)c2cc(Oc3ccnc4cc(-c5nc(C(C)(C)O)cs5)sc34)ccc12 [Example 40]" experimental_value=3.89
compound="CCc1oc2cc(Oc3ccnc4cc(C(=O)N5CC[C@@H](O)C5)sc34)ccc2c1C(=O)NC [Example 95]" experimental_value=1.98
compound="COC[C@@H]1CCCN1C(=O)c1cc2nccc(Oc3ccc4c(C(=O)NC5CC5)c(C)sc4c3)c2s1 [Example 120]" experimental_value=2.69
compound="CNC(=O)c1c(C)oc2cc(Oc3ccnc4cc(C(=O)N5CCC[C@H]5CO)sc34)ccc12 [Example 80]" experimental_value=1.78
compound="CO[C@@H]1CCN(C(=O)c2cc3nccc(Oc4ccc5c(C(=O)NCC6CC6)c(C)oc5c4)c3s2)C1 [Example 91]" experimental_value=2.40

Given item CNC(=O)c1c(C)oc2cc(Oc3ccnc4cc(C(=O)N5CCC5)sc34)ccc12 [Example 77] , the value recorded as its log10 of IC50 is 0.90

Please fill in: log10 of IC50 reported for Cc1oc2cc(Oc3ccnc4cc(-c5nccn5C)sc34)ccc2c1C(=O)NC(C)C [Example 83] = 2.15

Form field log10 of IC50, entry CNC(=O)c1c(C)n(C)c2cc(Oc3ccnc4cc(C(=O)N(C)C)sc34)ccc12 [Example 33] : 4.00
